# METHOD: acute toxicity (single oral administration)
# STATED CONDITIONS: mouse, in vivo, po; read-out: Toxicity LD 50
EXPERIMENTAL ENDPOINT: LD50

// field: LD50; key: CCOC(C)(C)CSCc1c(C)c(OC)cc[n+]1-c1nc2cc(C(F)(F)F)ccc2[n-]1 ; value = > 5000 mg/kg

// field: LD50; key: COc1cc[n+](-c2nc3cc(C(F)(F)F)ccc3[n-]2)c(CSCC(C)(C)OC(C)=O)c1C ; value = 2500 to 5000 mg/kg

// field: LD50; key: COc1cc[n+](-c2nc3cc(C(F)(F)F)ccc3[n-]2)c(CSCC(C)(C)OCCO)c1C ; value = 2500 to 5000 mg/kg

// field: LD50; key: COCCOC(C)(C)CSCc1c(C)c(OC)cc[n+]1-c1nc2cc(C(F)(F)F)ccc2[n-]1 ; value = 2500 to 5000 mg/kg

====

Give measured ED50 for each item. Keep answers brief.
# Test system: indomethacin-induced lesions of the stomach
# METHOD: anti-ulcer activity (protection from indomethacin-induced stomach lesions)
# Format: in vivo
# STATED CONDITIONS: Rattus norvegicus, po, male rats, given 1 hour before and 2 hours after 20 mg/kg indomethacin p.o.; dosage protecting 50% of animals from lesions
Give the value in mg/kg but do not write mg/kg after it.

// field: ED50; key: COc1cc[n+](-c2nc3ccc(C(F)(F)F)cc3[nH]2)c(CSCC(C)(C)OC(C)=O)c1C.[Cl-] ; value = 1.9

// field: ED50; key: CCOC(C)(C)CSCc1c(C)c(OC)cc[n+]1-c1nc2cc(C(F)(F)F)ccc2[n-]1 ; value = 4.6

// field: ED50; key: COc1cc[n+](-c2nc3ccc(C(F)(F)F)cc3[nH]2)c(CSCC(C)(C)OCCO)c1C.CS(=O)(=O)[O-] ; value = 4.4

// field: ED50; key: COCCOC(C)(C)CSCc1c(C)c(OC)cc[n+]1-c1nc2ccc(C(F)(F)F)cc2[nH]1.CS(=O)(=O)[O-] ; value = 6

// field: ED50; key: COc1cc[n+](-c2nc3cc(C(F)(F)F)ccc3[n-]2)c(CSCC(C)(C)OCCO)c1C ; value = 6.1

// field: ED50; key: CCOC(C)(C)CSCc1c(C)c(OC)cc[n+]1-c1nc2ccc(C(F)(F)F)cc2[nH]1.CS(=O)(=O)[O-] ; value = 3.2

// field: ED50; key: COc1cc[n+](-c2nc3cc(C(F)(F)F)ccc3[n-]2)c(CSCC(C)(C)OC(C)=O)c1C ; value = 2.8

// field: ED50; key: CCOC(C)(C)CSCc1c(C)c(OC)cc[n+]1-c1nc2ccc(C(F)(F)F)cc2[nH]1.[Cl-] ; value = 4.1

// field: ED50; key: COCCOC(C)(C)CSCc1c(C)c(OC)cc[n+]1-c1nc2cc(C(F)(F)F)ccc2[n-]1 ; value = 7

// field: ED50; key: COc1cc[n+](-c2nc3ccc(C(F)(F)F)cc3[nH]2)c(CSCC(C)(C)OC(C)=O)c1C.CS(=O)(=O)[O-] ; value = 3.2

====

# METHOD: acute toxicity (single oral administration)
# STATED CONDITIONS: mouse, in vivo; p.o., single oral administration to mice; read-out: Toxicity LD 50
EXPERIMENTAL ENDPOINT: LD50

// field: LD50; key: CCOC(C)(C)CSCc1c(C)c(OC)cc[n+]1-c1nc2ccc(C(F)(F)F)cc2[nH]1.[Cl-] [I] ; value = 2500 to 5000 mg/kg

// field: LD50; key: COc1cc[n+](-c2nc3ccc(C(F)(F)F)cc3[nH]2)c(CSCC(C)(C)OCCO)c1C.CS(=O)(=O)[O-] [A] ; value = 2500 to 5000 mg/kg

// field: LD50; key: COCCOC(C)(C)CSCc1c(C)c(OC)cc[n+]1-c1nc2ccc(C(F)(F)F)cc2[nH]1.CS(=O)(=O)[O-] [C] ; value = 1000 to 2000 mg/kg

// field: LD50; key: COc1cc[n+](-c2nc3ccc(C(F)(F)F)cc3[nH]2)c(CSCC(C)(C)OC(C)=O)c1C.CS(=O)(=O)[O-] [E] ; value = 2500 to 5000 mg/kg

// field: LD50; key: COc1cc[n+](-c2nc3ccc(C(F)(F)F)cc3[nH]2)c(CSCC(C)(C)OC(C)=O)c1C.[Cl-] [F] ; value = 1250 to 2500 mg/kg
